- measured-on: UniProtKB P00533
- method-notes: ELISA-based EGFR kinase inhibition assay
- conditions-used: sample at 5uM; duplicate wells; standards in ng/ml; cont 134.9
measured-quantity: Conc. (Average), ELISA read-out

Reference set, count: 2
molecule: CN1CCC(=O)C(=Cc2ccc(OC3CCCC3)cc2)C1
Conc. (Average), ELISA read-out: 66.98

molecule: CCOC(=O)C1=C(C)OC(N)=C(C#N)C1c1ccc(OC2CCCC2)cc1 (stereo not shown)
Conc. (Average), ELISA read-out: 45.89

[I] CCN1CCC(=O)C(=Cc2ccc(OC3CCCC3)cc2)C1
[II] Cc1ccc(C2=NN(c3ccccc3)C(c3ccc(OC4CCCC4)cc3)C2)cc1 (stereo not shown)
For this pair, I and II , which shows a numerically higher Conc. (Average), ELISA read-out? Please indicate the selected item by its label.
II
(II: 52.98, I: 31.41)

----------
- measured-on: EGFR kinase (Homo sapiens)
- method-notes: ELISA-based EGFR kinase inhibition assay
- conditions-used: sample at 2.5uM; duplicate wells; standards in ng/ml; cont 134.9
measured-quantity: Conc. (Average), ELISA read-out

Example cases with answers are listed next.
compound: Cc1ccc(C2=NN(c3ccccc3)C(c3ccc(OC4CCCC4)cc3)C2)cc1 (stereo not shown)
measured-on: EGFR kinase (Homo sapiens)
endpoint-result: 66.76
//
compound: CCOC(=O)C1=C(C)OC(N)=C(C#N)C1c1ccc(OC2CCCC2)cc1 (stereo not shown)
measured-on: EGFR kinase (Homo sapiens)
endpoint-result: 63.59

[I] CN1CCC(=O)C(=Cc2ccc(OC3CCCC3)cc2)C1
[II] CCN1CCC(=O)C(=Cc2ccc(OC3CCCC3)cc2)C1
Returns the identifier with the smallest measured Conc. (Average), ELISA read-out among I and II . Kindly give the label for the entry you pick.
II
(II: 47.96, I: 75.07)

----------
- Test system: HepG2 cells
- method-notes: MTT antitumour assay, HepG2
- Type: cell-based
- conditions-used: human hepato-cellular carcinoma cell line, mean ± SD, n = 3
- Protocol: The evaluation of the antitumour activity was performed using tetrazolium salt MTT (3-(4,5-dimethyl-2-thiazolyl)-2,5-diphenyl-2H-tetrazolium bromide) assay as reported[62]^,[63]. […]
measured-quantity: IC50 (µM)

molecule: Cc1ccc(C(=O)C=Cc2ccc(OC3CCCC3)cc2)cc1
endpoint-result: 20

[1] Cc1ccc(C2=NN(c3ccccc3)C(c3ccc(OC4CCCC4)cc3)C2)cc1 (stereo not drawn)
[2] O=C1CCCCCC1=Cc1ccc(OC2CCCC2)cc1
Which of the two items, 1 and 2 , has the greater recorded IC50? Could you answer with the label of the item you picked?
2

[a] CCOC(=O)C1=C(C)OC(N)=C(C#N)C1c1ccc(OC2CCCC2)cc1 (stereo not drawn)
[b] CCN1CCC(=O)C(=Cc2ccc(OC3CCCC3)cc2)C1
Out of a and b , name the one with the higher IC50. Kindly give the label for the entry you pick.
b

----------
- measured-on: EGFR kinase (Homo sapiens)
- method-notes: ELISA-based EGFR kinase inhibition assay
- conditions-used: read-out: % Inhibition EGFR, 0.31 μM
measured-quantity: inhibition at 0.31 µM (%)

compound: CCOC(=O)C1=C(C)OC(N)=C(C#N)C1c1ccc(OC2CCCC2)cc1 (stereo not shown) [compound 7]
inhibition at 0.31 µM / %: 31.8

[A] CCN1CCC(=O)C(=Cc2ccc(OC3CCCC3)cc2)C1 [6b]
[B] CN1CCC(=O)C(=Cc2ccc(OC3CCCC3)cc2)C1 [6a]
[C] Cc1ccc(C2=NN(c3ccccc3)C(c3ccc(OC4CCCC4)cc3)C2)cc1 (stereo not shown) [8b]
Reorder: inhibition at 0.31 µM, max to min. Your task in answering is to list the labels in the requested order.
A, C, B
(A: 49%, C: 26.3%, B: 18.2%)

----------
- measured-on: EGFR kinase (Homo sapiens, UniProt P00533)
- Sequence (P00533 25-1210): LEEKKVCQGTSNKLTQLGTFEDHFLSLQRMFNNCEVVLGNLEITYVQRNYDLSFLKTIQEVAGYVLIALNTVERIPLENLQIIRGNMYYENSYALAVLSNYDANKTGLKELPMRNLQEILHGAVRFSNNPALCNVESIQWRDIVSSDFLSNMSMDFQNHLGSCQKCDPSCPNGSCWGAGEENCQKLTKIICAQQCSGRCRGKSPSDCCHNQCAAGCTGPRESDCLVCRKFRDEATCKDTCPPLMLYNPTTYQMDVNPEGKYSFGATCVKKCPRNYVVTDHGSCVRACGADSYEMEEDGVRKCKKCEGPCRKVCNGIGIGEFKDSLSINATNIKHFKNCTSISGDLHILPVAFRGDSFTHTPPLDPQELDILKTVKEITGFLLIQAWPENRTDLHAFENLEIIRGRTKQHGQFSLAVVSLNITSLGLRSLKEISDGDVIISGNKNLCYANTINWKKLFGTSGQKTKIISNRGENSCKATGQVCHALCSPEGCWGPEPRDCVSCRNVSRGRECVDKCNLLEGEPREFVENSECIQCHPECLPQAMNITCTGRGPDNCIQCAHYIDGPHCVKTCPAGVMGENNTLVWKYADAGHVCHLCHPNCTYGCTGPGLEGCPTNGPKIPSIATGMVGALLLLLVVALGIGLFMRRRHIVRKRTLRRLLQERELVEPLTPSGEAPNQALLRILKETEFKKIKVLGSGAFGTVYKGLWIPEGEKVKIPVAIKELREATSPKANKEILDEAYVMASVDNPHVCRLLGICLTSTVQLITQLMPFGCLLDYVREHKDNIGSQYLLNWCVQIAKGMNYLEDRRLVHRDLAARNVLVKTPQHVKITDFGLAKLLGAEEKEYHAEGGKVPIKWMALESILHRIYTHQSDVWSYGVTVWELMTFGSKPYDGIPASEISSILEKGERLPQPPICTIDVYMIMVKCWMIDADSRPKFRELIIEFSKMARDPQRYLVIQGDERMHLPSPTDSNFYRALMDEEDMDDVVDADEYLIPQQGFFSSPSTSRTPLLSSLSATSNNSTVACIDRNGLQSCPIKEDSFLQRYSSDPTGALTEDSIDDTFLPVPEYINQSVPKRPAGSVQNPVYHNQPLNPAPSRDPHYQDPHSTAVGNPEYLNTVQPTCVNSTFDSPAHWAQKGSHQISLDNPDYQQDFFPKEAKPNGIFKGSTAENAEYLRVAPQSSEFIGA
- method-notes: ELISA-based EGFR kinase inhibition assay
- conditions-used: read-out: % Inhibition EGFR, 0.625 μM
measured-quantity: inhibition at 0.625 µM (%)

Take a look at these entries with their results.
compound: CCN1CCC(=O)C(=Cc2ccc(OC3CCCC3)cc2)C1
inhibition at 0.625 µM, %: 55.3
//
compound: CCOC(=O)C1=C(C)OC(N)=C(C#N)C1c1ccc(OC2CCCC2)cc1 (stereo not shown)
inhibition at 0.625 µM, %: 43.3

[I] CN1CCC(=O)C(=Cc2ccc(OC3CCCC3)cc2)C1
[II] Cc1ccc(C2=NN(c3ccccc3)C(c3ccc(OC4CCCC4)cc3)C2)cc1 (stereo not shown)
Which entry shows the lesser value of inhibition at 0.625 µM here, I or II ? Lab note: record the label of whichever item you select.
I
(I: 26.8%, II: 43.9%)

----------
- measured-on: EGFR kinase (Homo sapiens)
pIC50: −log10 of the molar value.
measured-quantity: pIC50

compound: Cc1ccc(C2=NN(c3ccccc3)C(c3ccc(OC4CCCC4)cc3)C2)cc1 (centres unmarked)
pIC50: 5.67

compound: CCOC(=O)C1=C(C)OC(N)=C(C#N)C1c1ccc(OC2CCCC2)cc1 (centres unmarked)
pIC50: 5.80

----------
- measured-on: EGFR kinase (Homo sapiens, UniProt P00533)
- method-notes: ELISA-based EGFR kinase inhibition assay
- conditions-used: 2.5 μM
measured-quantity: % Inhibition EGFR (%)

compound: Cc1ccc(C2=NN(c3ccccc3)C(c3ccc(OC4CCCC4)cc3)C2)cc1 (stereo not shown)
value-unit: %
% Inhibition EGFR: 50.51

[A] CN1CCC(=O)C(=Cc2ccc(OC3CCCC3)cc2)C1
[B] CCN1CCC(=O)C(=Cc2ccc(OC3CCCC3)cc2)C1
Hi! Which is lower in terms of % Inhibition EGFR, the first one A or the second one B ? Identify your selection by its label.
A
(A: 44.35%, B: 64.44%)

----------
- measured-on: EGFR kinase (Homo sapiens, UniProt P00533)
- method-notes: ELISA-based EGFR kinase inhibition assay
- conditions-used: 0.31 μM
measured-quantity: % Inhibition EGFR (%)

molecule: CCN1CCC(=O)C(=Cc2ccc(OC3CCCC3)cc2)C1
value-unit: %
endpoint-result: 48.95
--
molecule: Cc1ccc(C2=NN(c3ccccc3)C(c3ccc(OC4CCCC4)cc3)C2)cc1 (stereo not shown)
value-unit: %
endpoint-result: 26.25

[I] CCOC(=O)C1=C(C)OC(N)=C(C#N)C1c1ccc(OC2CCCC2)cc1 (stereo not shown)
[II] CN1CCC(=O)C(=Cc2ccc(OC3CCCC3)cc2)C1
When I and II are compared, which has the higher number for % Inhibition EGFR? Answer by stating the label of the chosen item.
I

----------
- measured-on: EGFR kinase (Homo sapiens, UniProt P00533)
- method-notes: ELISA-based EGFR kinase inhibition assay
- conditions-used: 1.25 μM
measured-quantity: % Inhibition EGFR (%)

Recorded % Inhibition EGFR, per entry:
compound: Cc1ccc(C2=NN(c3ccccc3)C(c3ccc(OC4CCCC4)cc3)C2)cc1 (stereo not shown)
% Inhibition EGFR / %: 47.28
--
compound: CCOC(=O)C1=C(C)OC(N)=C(C#N)C1c1ccc(OC2CCCC2)cc1 (stereo not shown)
% Inhibition EGFR / %: 49.65

[a] CCN1CCC(=O)C(=Cc2ccc(OC3CCCC3)cc2)C1
[b] CN1CCC(=O)C(=Cc2ccc(OC3CCCC3)cc2)C1
Could you tell me which of these two has the smaller % Inhibition EGFR figure? First: a Second: b Record your answer as the label of the chosen record.
b
(b: 34.55%, a: 61.23%)

----------
- measured-on: UniProt:P00533
- method-notes: ELISA-based EGFR kinase inhibition assay
- conditions-used: sample at 0.62uM; duplicate wells; standards in ng/ml; cont 134.9
measured-quantity: Conc. (Average), ELISA read-out

compound: CCOC(=O)C1=C(C)OC(N)=C(C#N)C1c1ccc(OC2CCCC2)cc1 (stereo not shown)
Conc. (Average), ELISA read-out: 76.52
//
compound: Cc1ccc(C2=NN(c3ccccc3)C(c3ccc(OC4CCCC4)cc3)C2)cc1 (stereo not shown)
Conc. (Average), ELISA read-out: 75.74

[I] CCN1CCC(=O)C(=Cc2ccc(OC3CCCC3)cc2)C1
[II] CN1CCC(=O)C(=Cc2ccc(OC3CCCC3)cc2)C1
Which has the smaller recorded Conc. (Average), ELISA read-out, I or II ? Give the label under which the chosen entry appears.
I

----------
- measured-on: EGFR kinase (Homo sapiens)
- method-notes: ELISA-based EGFR kinase inhibition assay
- conditions-used: 0.15 μM
measured-quantity: % Inhibition EGFR (%)

Sample records with % Inhibition EGFR:
molecule: Cc1ccc(C2=NN(c3ccccc3)C(c3ccc(OC4CCCC4)cc3)C2)cc1 (stereo not shown) [8b]
endpoint-result: 6.96
--
molecule: CCOC(=O)C1=C(C)OC(N)=C(C#N)C1c1ccc(OC2CCCC2)cc1 (stereo not shown) [compound 7]
endpoint-result: 8.22

[a] CN1CCC(=O)C(=Cc2ccc(OC3CCCC3)cc2)C1 [6a]
[b] CCN1CCC(=O)C(=Cc2ccc(OC3CCCC3)cc2)C1 [6b]
// compare measured % Inhibition EGFR, left a , right b , return larger Lab log: write the label of the selected item as the result.
b
